Entry source: PubChem BioAssay AID588790

target: Beta-2 adrenergic receptor (Homo sapiens); experiment: qHTS assay of beta-arrestin-biased ligands of beta2-adrenergic receptor: Hit Validation with GloSensor; settings: W9-Glo22F cells, GloSensor cAMP luminescence, beta2AR agonism; further: potency means the concentration at half of the fitted maximal effect
In all, about 1,200 compounds went through this assay and about 85 (7%) were called active. Shown is part of a subset that was picked to be rich in actives.
measurement.kind: Potency

Consider the worked cases shown below.
Notebook: pull reported Potency for Beta-2 adrenergic receptor (Homo sapiens), entry "O=C(O)C12CC3CC(C1)CC(n1ncc(N4CCN(c5ccccc5)CC4)c(Cl)c1=O)(C3)C2"
inactive

Further, for "CC(=C/c1ccccc1)/C=N/n1c(C)n[nH]c1=S" ?
25.9 µM (active)

Please give the result for "COc1cccc([C@@H]2Oc3ccc(Br)cc3C(=O)[C@H]2OC(=O)NC2CCCC2)c1" too.
inactive

Further, for "COc1cc(/C=N/NC(=O)c2cncc(Br)c2)cc([N+](=O)[O-])c1O" ?
inactive

Read the next record carefully.
Give the reported Potency for "Cc1cc(-c2n[nH]c(=S)n2/N=C/C(Br)=C/c2ccccc2)n[nH]1" (system: Beta-2 adrenergic receptor (Homo sapiens)).
inactive
